# experimentNotes: Cytotoxicity assay
# Type: cell-based
# testConditions: human
property: viability at 24 h, 500 µM

Find the recorded viability at 24 h, 500 µM belonging to NC(=S)NN=C(c1ccccc1)c1ccccn1 [BpT, 2-benzoylpyridine thiosemicarbazone] and report it.
~70%
